Recorded values, source PubChem BioAssay AID588350.

Test: GAA30 FXN promoter activators, confirmation, counter-screen for GAA850 frataxin promoter activator project, cell-based, luminescence, HEK293, lucGAA30, triplicate (AID 588350);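 also: counterscreen of GAA850 promoter hits where activity marks nonselective or luminescence artifacts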
Settings: HEK293 lucGAA30 FXN promoter luciferase, 24 h; at 6 µM; hits give high values; DMSO = 0%, 5 µM ipriflavone = 100%
The campaign covered roughly 1,900 compounds. About 1,200 (63%) were called active. So high a share suggests a set chosen from earlier hits. These entries were drawn from the full list.
measured-parameter: activation (%)
Numeric only. Scale: %

Recorded activation for COc1cccc(Nc2nc(N)c([N+](=O)[O-])c(NCc3ccco3)n2)c1 , please?
42

Recorded activation for CC1(C(=O)NCc2cccc3ccccc23)CCN1Cc1ccc(-c2ccccc2)o1 (configuration not stated) , please?
24.2

Recorded activation for Cc1cc(C(=O)N/N=C\C(Br)=C\c2ccccc2)c(C)o1 , please?
58.9

Recorded activation for CN(C)CCNC(=O)c1ccc(Cl)c2cc3ccccc3nc12 , please?
-3.95

Recorded activation for O=c1[nH]cnc2c1c(-c1ccccc1)cn2-c1ccc(F)cc1 , please?
11.4

Recorded activation for COc1ccc(Cl)cc1NC(=O)CN(C)C(=O)CCCc1c[nH]c2ccccc12 , please?
16.9

Recorded activation for CCC(=O)NC(=Nc1nc2ccccc2s1)NC(=O)CC , please?
129

Recorded activation for CCc1ccc(N(C(=O)c2csnn2)C(C(=O)NC2CCCCC2)c2ccncc2)cc1 (configuration not stated) , please?
26.5

Recorded activation for Oc1ccccc1-c1cc(-c2ccc(Cl)cc2)n[nH]1 , please?
124

Recorded activation for Cc1ccc2cc(/C=N/Nc3ccc(C(=O)O)cc3)c(Cl)nc2c1 , please?
109

Recorded activation for COc1cc(/C=N/Nc2nc3ccccc3s2)ccc1O , please?
124

Recorded activation for CC(C)c1cc(C(=O)N/N=C/C(Br)=C/c2ccccc2)n[nH]1 , please?
-1.66

----------
Experiment: GAA30 FXN promoter activators, confirmation, counter-screen for GAA850 frataxin promoter activator project, cell-based, luminescence, HEK293, lucGAA30, triplicate (AID 588350);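 also: counterscreen of GAA850 promoter hits where activity marks nonselective or luminescence artifacts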
Details: HEK293 lucGAA30 FXN promoter luciferase, 24 h; at 6 µM; hits give high values; DMSO = 0%, 5 µM ipriflavone = 100%
About 1,200 (63%) of roughly 1,900 compounds were called active. The set was probably picked from earlier hits. Not all results are given here.
Classes by activation: I = under 20%, II = from 20% up to 90%, III = 90% and over

Could you place CN1C(=O)/C(=C\c2cc(Br)cs2)c2ccccc21 in its proper category? Many thanks.
III

Could you place Cc1nc(-c2ccc(F)cc2)c(CC(=O)Nc2cc(S(=O)(=O)N3CCCCC3)ccc2C)s1 in its proper category? Many thanks.
I

Could you place O=C(N/N=C/C=C/c1ccco1)c1cccs1 in its proper category? Many thanks.
II

Could you place COC(=O)[C@@]1(C)[C@H]2C(=O)N(Cc3ccccc3)C(=O)[C@H]2[C@H]2CN=C(SCC3CC3)N21 in its proper category? Many thanks.
II

Could you place Cc1ccc(-c2nc3ccccc3[nH]c2=O)cc1 in its proper category? Many thanks.
III

Could you place COc1ccc(-c2csc(Nc3ccc(O)cc3)n2)cc1 in its proper category? Many thanks.
III

Could you place CC[C@]1(C(=O)OC)[C@H]2C(=O)N(Cc3ccccc3)C(=O)[C@H]2[C@H]2CN=C(SCc3ccc(C#N)cc3)N21 in its proper category? Many thanks.
II

Could you place CN(C)C(=S)N=c1ssc(=S)n1Cc1ccco1 in its proper category? Many thanks.
I

Could you place CSc1nc(N)c(C#N)c(-c2ccccc2Cl)c1C#N in its proper category? Many thanks.
II

Could you place CC(C)CCC(C)NC(=O)c1ccc2nccnc2c1 (stereo not drawn) in its proper category? Many thanks.
II

Could you place CC(Sc1nc2c([nH]c3ccccc32)c(=O)n1C)c1ccccc1 (stereo not drawn) in its proper category? Many thanks.
II

Could you place Cc1noc(C)c1-c1ccc2ncnc(NC(C)c3ccco3)c2c1 (stereo not drawn) in its proper category? Many thanks.
II

Could you place O=C1N=C(N2CCCC2)S/C1=C\c1cccc(Br)c1 in its proper category? Many thanks.
II

Could you place O=c1oc2ccccc2cc1-c1csc(Nc2ccc(O)cc2)n1 in its proper category? Many thanks.
III

Could you place CCCNC(=O)c1c(Cl)cnn1-c1ccc(C)cc1 in its proper category? Many thanks.
III

Could you place CC[C@@]12C(=O)N(c3ccccc3)C(=O)N1[C@H](c1ccc(Br)cc1)[C@@H]1C(=O)N(C(C)(C)C)C(=O)[C@@H]12 in its proper category? Many thanks.
II

Could you place CC(C)c1ccc(NS(=O)(=O)c2cn(C)c(=O)n(C)c2=O)cc1 in its proper category? Many thanks.
I

Could you place Cn1c(CCN2CCCCCC2)nc2cc(NC(=O)Nc3ccccc3)ccc21 in its proper category? Many thanks.
III

Could you place CCCCCOc1ccc(CSC2=NCCN2)cc1[N+](=O)[O-] in its proper category? Many thanks.
II

Could you place CC(C)(C)C(=O)c1cnc(Nc2ccccc2)s1 in its proper category? Many thanks.
III

Could you place COCCn1c(=NC(=O)c2ccccc2[N+](=O)[O-])sc2cc(S(C)(=O)=O)ccc21 in its proper category? Many thanks.
II

Could you place COc1ccccc1N1CCN(C(=O)c2cc(-c3ccc(Br)cc3)on2)CC1 in its proper category? Many thanks.
I

Could you place CN(C(=O)c1cc2c(=O)n3ccccc3nc2s1)C1CCCCC1 in its proper category? Many thanks.
III

Could you place N#Cc1c(N)nc2c3c(sc(=N)c2c1N)NC(=O)CC3c1ccccc1Cl (stereo not drawn) in its proper category? Many thanks.
II

Could you place CCOC(=O)c1cc2c(=O)n3ccccc3nc2n(CC(C)C)c1=NC(=O)c1c(-c2c(F)cccc2Cl)noc1C in its proper category? Many thanks.
I

Could you place Cc1ccc(C2Nc3cccc4cccc(c34)N2)cc1 in its proper category? Many thanks.
II

Could you place CCC1(CC)Cc2ccccc2-c2nc(CCl)[nH]c(=O)c21 in its proper category? Many thanks.
I

Could you place Cc1ccc(-n2c(C)cc(/C=C(\C#N)C(=O)NCC3CCCO3)c2C)cc1 (stereo not drawn) in its proper category? Many thanks.
III

Could you place Cc1nnc(Sc2nc3c(c(=O)[nH]c(=O)n3C)n2Cc2ccccc2)s1 in its proper category? Many thanks.
I

Could you place Fc1ccccc1/C=N/Nc1cc(N2CCCCC2)ncn1 in its proper category? Many thanks.
III

Could you place N#CC1=C(SCc2ccc(C#N)cc2)N=C(N)C(c2nc(-c3ccccc3)cs2)C12CCCCC2 (stereo not drawn) in its proper category? Many thanks.
I

Could you place Fc1ccc2nc(N3CCCCC3)sc2c1 in its proper category? Many thanks.
III

Could you place CCOc1ccc(Nc2oc(Cc3ccccc3)nc2C#N)cc1 in its proper category? Many thanks.
II

Could you place Nc1ccc(C(=O)Nc2ccccc2N)cc1 in its proper category? Many thanks.
II
